The origin of these recorded values is paper PMC6221475.

# ASSAYED TARGET: σ2 receptors
# PROTOCOL DESCRIPTION: σ2 receptor in vitro binding assay with [3H]DTG
# SETUP CONDITIONS: read-out: Ki-σ2; [3H]DTG as radioligand
MEASURED ENDPOINT: Ki

What reported Ki corresponds to O=C(c1ccc(F)cc1)C1CCN(C2Cc3c(O)cccc3CC2O)CC1 (single isomer, unassigned; (-)) [(−)-1] on σ2 receptors?
> 10 µM

----------
# ASSAYED TARGET: σ1 receptors
# PROTOCOL DESCRIPTION: σ1 receptor in vitro binding assay with [3H]pentazocine
# SETUP CONDITIONS: read-out: Ki-σ1; [3H]pentazocine as radioligand
MEASURED ENDPOINT: pKi
Convention used: pKi is expressed as -log10 of the molar concentration.

Item under review: O=C(c1ccc(F)cc1)C1CCN(C2Cc3c(O)cccc3CC2O)CC1 (single isomer, unassigned; (-)) [(−)-1] . Reported pKi?
5.70
